This collection of values is drawn from patent US20230303994.

system: pre-pro-insulin glargine
The following proteins are listed with their measured Purity Insulin Glargine values.

{"protein": "trypsin variant SEQ ID NO: 96 (protein) IVGGYTCAANSIPYQVSLNSGSHRCGGSLINSQWVVSAAHCYKPRIQVRLGEHNIDVLEGNEQFINAAKIITHPNFNPNTLDNDIMLIKLSSPATLNSHVATVSLPRSCAAAGTECLISGWGNTSSSGSSMPSLLQCLKAPVLSDSSCKSSYPGQITGNMICVGFLEGGADACQGDSGGPVVCNGQLQGIVSSGYGCAQKNKPGVYTKVCNYVNWIQQTIAAN", "Purity Insulin Glargine": "78.7 area %"}
{"protein": "trypsin variant SEQ ID NO: 53 (protein) IVGGYTCAANSIPYQVSLNSGSHRCGGSLINSQWVVSAAHCYKPRIQVRLGEHNIDVLEGNEQFINAAKIITHPNFNGNTLDNDIMLIKLSSPATLNSRVATVSLPRSCAAAGTECLISGWGNTKSSGSSYPSLLQCLKAPVLSDSSCKSSYPGQITGNMICVGFLEGGKDACQGDSGGPVVCNGQLQGIVSSGYGCAQKNKPGVYTKVCNYVNWIQQTIAAN", "Purity Insulin Glargine": "81.3 area %"}
{"protein": "trypsin variant SEQ ID NO: 11 (protein) IVGGYTCAANSIPYQVSLNSGSHRCGGSLINSQWVVSAAHCYKSRIQVRLGEHNIDVLEGNEQFINAAKIITHPNFNGNTLDNDIMLIKLSSPATLNSNVATVSLPRSCAAAGTECLISGWGNTKSSGSSYPSLLQCLKAPVLSDSSCKSSYPGQITGNMICVGFLEGGKDACQGDSGGPVVCNGQLQGIVSSGYGCAQKNKPGVYTKVCNYVNWIQQTIAAN", "Purity Insulin Glargine": "84.1 area %"}
